- Tested on: S. epidermidis C621
- Type: cell-based, Staphylococcus epidermidis
- experimental.setup: mean of three; 16 to 20 hours at 35° C.
No end group written: not given here.
Provide the recorded S. epidermidis C621 MIC for the entries that follow.
API: value field is a number in µg/mL; no unit string.

Returns the measured S. epidermidis C621 MIC for the input substance. Input: FAVGLRAIKRALKKLRRGVRKVAKDL-NH2 [P157, reference compound]
4

// repeat for FALLKALLKKAL-NH2 [P177, FALLKALLKKAL-NH2] and report
4

Input FAKKLAKKLAKLL-NH2 [P75]
8

Another: FALALKALKKALKKLKKALKKAL-NH2 [P2, reference compound]
8

Now the substance FAKKLKKLAKLAKKL-NH2 [P46]
8

Same for KYKKALKKLAKLL-NH2 [P146]
8

Same read-out for FALALKALKKLAKKLKKLAKKAL-NH2 [P25] ?
4

Now consider FAKLLAKLAKKL-NH2 [P49] and answer again.
8

Subsequent entry: FAKLLALALKKAL-NH2 [P97, FAKLLALALKKAL-NH2]
4

Note, next up: FAKKLAKKLKKLAKLALAK-NH2 [P41]
4

Next: FALKALKKLKKALKKAL-NH2 [P153]
4

Then this substance: FAKKLAKLALKLAKL-NH2 [P44]
4

What about this substance? FAKLLAKLAKKLL-NH2 [P43]
2

----------
- Tested on: human red blood cells (RBC); further: unit not given here
- protocol.description: in vitro
- Format: cell-based
- experimental.setup: human red blood cells
No end group written: not given here.
Could you please report measured Peptide toxicity RBC LD/50 for the items listed next?

Entry FAKLLAKLAKAKA-NH2 [compound 61] , system human red blood cells (RBC): what Peptide toxicity RBC LD/50 was measured?; further: unit not given here
>1000

Could you do the same for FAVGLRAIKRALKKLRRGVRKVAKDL-NH2 [compound 119] , please?
850

Param item: FAKKLAKLAKKLLAL-NH2 [compound 20]
350

Would you kindly repeat that for FALALKALKKLKKALKKAL-NH2 [compound 12] ?
125

----------
- Tested on: Pseudomonas aeruginosa ATCC 9027
- protocol.description: Antimicrobial assay I, MIC by OD measurement
- Assay type: cell-based
- experimental.setup: 37° C. for 24 hours, absorbance 620 nm
No end group written: not given here.
Label Criterion met when paerug9027 (MIC) is strictly below 100 µg/mL; otherwise label Criterion not met.

Item FALALKALKKL-NH2 [P165] : paerug9027 (MIC) beneath 100 µg/mL, strictly?
Criterion met

Next record, please: FAKLLAKFLKKAL-NH2 [P113]
Criterion not met

And the next one, FAKLLAKKLL-NH2 [P57] ?
Criterion not met

Param item: FAKLLAKALKKFAL-NH2 [P119, FAKLLAKALKKFAL-NH2]
Criterion met

Can you handle FALKALKKLKKALKKAL-NH2 [P153] next?
Criterion met

Entry FAKKLAKLALKLAKL-NH2 [P44] please
Criterion met

Try this substance next: FAKLFAKAFKKAL-NH2 [P117, FAKLFAKAFKKAL-NH2]
Criterion not met

Field entry: KYKKALKKLAKLL-NH2 [P146]
Criterion met

Repeat for the following substance: FAKKLAKLAKKLAKAL-NH2 [P109]
Criterion not met

Next substance up: FAKIIAKIAKKI-NH2 [P143]
Criterion met

Another substance: FAKLLKLAAKKLL-NH2 [P56]
Criterion met

Please give the result for FAKLLAKLAKAKL-NH2 [P65] too.
Criterion met

Further, for FAKLLAKLAKLKL-NH2 [P66] ?
Criterion met

Next substance up: FAKLLFKALKKAL-NH2 [P112, FAKLLFKALKKAL-NH2]
Criterion not met

Entry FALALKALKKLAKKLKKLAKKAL-NH2 [P25] please
Criterion met

Next substance up: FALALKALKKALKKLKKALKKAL-OH [P1, reference compound]
Criterion met

Same question for FAKKLKKLAKKL-NH2 [P79] please.
Criterion not met

Moving on to the next substance: FAKKLAKKLKKLAKLALAK-NH2 [P41]
Criterion met

Also KWKLFKKIGAVLKVL-NH2 [P53, reference compound] , if possible.
Criterion met

Same again, this time with FAKLLAKLAKKL-NH2 [P49]
Criterion not met

And what about the substance FALAAKALKKLAKKLKKLAKKAL-NH2 [P23] ?
Criterion met

Now the same for FAKLLAKALKKL-NH2 [P103]
Criterion met

Also FAKLLAKLAK-NH2 [P123] , if possible.
Criterion not met

Also FALALKLKKL-NH2 [P181] ?
Criterion not met

Okay, and FALALKALKKAL-NH2 [P144, FALALKALKKAL-NH2] ?
Criterion met

What about FAKKLAKKLKKLAKKLAK-OH [P71] ?
Criterion met

FALALKALKKLKKALKKAL-NH2 [P27] ?
Criterion met

And what about the substance FALALKA-NH2 [P141, FALALKA-NH2] ?
Criterion met

Repeat with FALAKKALKKAKKAL-NH2 [P40, FALAKKALKKAKKAL-NH2]
Criterion met

Follow-up entry: FALAKLAKKAKAKLKKALKAL-NH2 [P26]
Criterion met
